METHOD SUMMARY: Toxicokinetics, 14-day intranasal study in dogs (Study 62959)
Format: in vivo
STUDY CONDITIONS: male, Beagle, dog, plasma, inhaled or intranasal, 0.8 mg/kg/day, Day 1, Male, read-out: AUC0-Tlast
REPORTED PROPERTY: AUC(0-t) (ng·h/mL)
Give the number; ng·h/mL is assumed, so skip it.

Field AUC(0-t) (entry COc1ccc2[nH]cc(CCN(C)C)c2c1 ) reads 152

* * *

METHOD SUMMARY: Toxicokinetics, 14-day intranasal study in dogs (Study 62959)
Assay type: in vivo
STUDY CONDITIONS: female, beagle, dog, plasma, inhaled or intranasal, 0.4 mg/kg/day, Day 14, Female
REPORTED PROPERTY: Cmax (ng/mL)
Give the number; ng/mL is assumed, so skip it.

Field Cmax (entry COc1ccc2[nH]cc(CCN(C)C)c2c1 ) reads 196

* * *

METHOD SUMMARY: Toxicokinetics, 14-day intranasal study in rats (Study 700041)
Type: in vivo
STUDY CONDITIONS: female, Sprague Dawley, rat, plasma, inhaled or intranasal, 20 mg/kg/day, Day 1, Female, read-out: AUCINF_obs
REPORTED PROPERTY: AUC(0-inf) (µg·h/mL)
Give the number; µg·h/mL is assumed, so skip it.

Field AUC(0-inf) (entry COc1ccc2[nH]cc(CCN(C)C)c2c1 [5MeODMT, 5-methoxy-N,N-dimethyltryptamine] ) reads 0.198

* * *

METHOD SUMMARY: Toxicokinetics, 14-day intranasal study in dogs (Study 62959)
Type: in vivo
STUDY CONDITIONS: female, Beagle, dog, plasma, inhaled or intranasal, 0.8 mg/kg/day, Day 14, Female, read-out: t1/2 (converted)
REPORTED PROPERTY: half-life (h)
Give the number; h is assumed, so skip it.

Field half-life (entry COc1ccc2[nH]cc(CCN(C)C)c2c1 ) reads 1.59

* * *

METHOD SUMMARY: Toxicokinetics, 14-day intranasal study in rats (Study 700041)
Type: in vivo
STUDY CONDITIONS: male, Sprague Dawley, rat, plasma, inhaled or intranasal, 75 mg/kg/day, Day 1, Male
REPORTED PROPERTY: Cmax (µg/mL)
Give the number; µg/mL is assumed, so skip it.

Field Cmax (entry COc1ccc2[nH]cc(CCN(C)C)c2c1 [5MeODMT, 5-methoxy-N,N-dimethyltryptamine] ) reads 7.01

* * *

METHOD SUMMARY: Toxicokinetics, 14-day intranasal study in rats (Study 700041)
Type: in vivo
STUDY CONDITIONS: male, Sprague Dawley, rat, plasma, inhaled or intranasal, 20 mg/kg/day, Day 14, Male, read-out: t1/2 (converted)
Method: The animals were monitored for mortality, clinical signs, respiratory measurements, body weights, food consumption, and body temperature. Ophthalmoscopic examinations and respiratory function tests were performed on all animals at scheduled timepoints. Clinical pathology assessments (hematology, coagulation, clinical chemistry, and urinalysis) were evaluated at termination. […] Following dosing, the Main animals were euthanized and subjected to a complete necropsy examination on Day 15. […]
REPORTED PROPERTY: half-life (min)
Give the number; min is assumed, so skip it.

Field half-life (entry COc1ccc2[nH]cc(CCN(C)C)c2c1 [5MeODMT, 5-methoxy-N,N-dimethyltryptamine] ) reads 8.58

* * *

METHOD SUMMARY: Toxicokinetics, 14-day intranasal study in rats (Study 700041)
Format: in vivo
STUDY CONDITIONS: female, Sprague Dawley, rat, plasma, inhaled or intranasal, 75 mg/kg/day, Day 1, Female, read-out: AUCINF_obs
REPORTED PROPERTY: AUC(0-inf) (ng·h/mL)
Give the number; ng·h/mL is assumed, so skip it.

Field AUC(0-inf) (entry COc1ccc2[nH]cc(CCN(C)C)c2c1 [5MeODMT, 5-methoxy-N,N-dimethyltryptamine] ) reads 228

* * *

METHOD SUMMARY: Toxicokinetics, 14-day intranasal study in rats (Study 700041)
Type: in vivo
STUDY CONDITIONS: male, Sprague Dawley, rat, plasma, inhaled or intranasal, 5 mg/kg/day, Day 1, Male, read-out: AUCINF_obs
REPORTED PROPERTY: AUC(0-inf) (ng·h/mL)
Give the number; ng·h/mL is assumed, so skip it.

Field AUC(0-inf) (entry COc1ccc2[nH]cc(CCN(C)C)c2c1 ) reads 40.1
